Molecular target: Photoreceptor-specific nuclear receptor (Homo sapiens, UniProt Q9Y5X4);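 note: CHO-S cells with Gal4-NCOR and VP16-NR2E3 two-hybrid luciferase reporter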
Sequence (Q9Y5X4 whole entry, the tested form may be a part): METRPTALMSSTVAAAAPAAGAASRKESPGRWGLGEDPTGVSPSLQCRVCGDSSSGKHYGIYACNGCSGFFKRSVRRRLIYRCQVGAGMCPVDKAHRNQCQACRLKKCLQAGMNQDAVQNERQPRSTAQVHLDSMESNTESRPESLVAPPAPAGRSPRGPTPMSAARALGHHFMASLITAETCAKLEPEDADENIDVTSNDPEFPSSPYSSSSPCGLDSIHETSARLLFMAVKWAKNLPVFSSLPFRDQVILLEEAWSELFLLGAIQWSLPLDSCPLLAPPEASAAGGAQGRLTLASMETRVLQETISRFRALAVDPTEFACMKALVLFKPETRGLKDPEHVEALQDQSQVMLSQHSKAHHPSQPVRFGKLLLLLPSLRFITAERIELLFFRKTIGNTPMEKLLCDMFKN
Assay type: functional, cell-based
The source made the active and inactive calls.
PROPERTY: IC50

>>> reported_result("CC1CC(C)C(=NNC(N)=O)C(C(O)CC2CCC(=O)NC2=O)C1 (centres undefined)")
"2530 nM (active)"
>>> reported_result("Oc1[nH]c2ccc(Br)cc2c1N=NC(=S)N1CCOCC1")
"1810 nM (active)"
>>> reported_result("Cc1ccc(Cc2cnc(N3C(=N)SC(C)C3=O)s2)cc1 (centres undefined)")
"1890 nM (active)"
>>> reported_result("O=C(CN1C(=O)C(c2ccc(F)cc2)=NC12CCCC2)Nc1ccc(F)cc1")
"2930 nM (active)"

###

Biological target: Protein RecA (Mycobacterium tuberculosis)
Experiment: Fluorescence Cell-Free Homogeneous Dose Retest to Identify Inhibitors of RecA-Intein Splicing Activity. [Related pubchem assays (depositor defined):AID2097, AID2223, AID489010, AID492950]
Assay type: functional
The source made the active and inactive calls.
Labels: active, inactive

>>> category_label("N=c1c2c(-c3ccccc3)c(-c3ccccc3)n(Cc3ccco3)c2ncn1Cc1ccco1")
"active"
>>> category_label("N=c1c2c(-c3ccccc3)c(-c3ccccc3)n(Cc3ccco3)c2ncn1Cc1ccccc1")
"active"
>>> category_label("COc1ccc(NC(=O)Nc2c(O)ccc3ccccc23)cc1")
"active"
>>> category_label("O=C(c1ccco1)c1coc2c1cc(O)c1ccccc12")
"active"
>>> category_label("O=C(N/N=C/c1ccc(OC(=O)c2ccco2)cc1)c1ccc[n+]([O-])c1")
"active"
>>> category_label("CN(C)c1ccc(C(=O)n2nnc3ccccc32)cc1")
"active"
>>> category_label("N#C/C(=N\\Nc1ccc(S(=O)(=O)N2CCc3ccccc32)cc1)C(N)=S")
"active"
>>> category_label("CC1=NN(c2ccc(C)cc2C)C(=O)C1C(c1ccccc1)C1C(=O)N(c2ccc(C)cc2C)N=C1C (centres undefined)")
"active"
>>> category_label("Cc1n[nH]c2c1C(c1ccc(OC(=O)c3ccco3)cc1)C(C#N)=C(N)O2 (centres undefined)")
"active"
>>> category_label("c1coc(-c2nnc(-c3ccco3)nn2)c1")
"active"
>>> category_label("Cc1n[nH]c(O)c1C(c1ccc2c(c1)OCO2)c1c(C)n[nH]c1O")
"active"
>>> category_label("Oc1cc(-c2cccc3ccccc23)[nH]n1")
"active"
>>> category_label("CCC(=O)N(CC)C1=C(O)C(=O)c2ccccc2C1=O")
"active"
>>> category_label("COc1ccc2[nH]c(CN3CCC(CO)(CCOc4ccccc4)CC3)c(C)c2c1")
"inactive"
>>> category_label("Cc1n[nH]c(O)c1C(c1ccc(F)cc1)c1c(C)n[nH]c1O")
"active"
>>> category_label("N#CC(C#N)=C(Nc1ccc(F)cc1)SCc1cccc(Br)c1")
"active"
>>> category_label("Cc1nn(-c2ccccc2)c(O)c1/C=N/NC(=O)c1ccc(O)cc1O")
"active"
>>> category_label("COc1cc(OC)cc(C(=O)N/N=C(\\C)CC(=O)Nc2ccccn2)c1")
"active"
>>> category_label("Oc1[nH]c2ccc(Br)cc2c1N=NC(=S)N1CCOCC1")
"active"
>>> category_label("CCCCCCCCNC(=O)/C(C#N)=C/c1ccccc1[N+](=O)[O-]")
"active"
>>> category_label("Oc1c(/C=N/Cc2ccc(F)cc2)[nH]c2ccc(Br)c(Cl)c12")
"active"
>>> category_label("COc1ccc(CC2=CC(=O)c3ccccc3C2=O)cc1")
"active"

###

Target chain: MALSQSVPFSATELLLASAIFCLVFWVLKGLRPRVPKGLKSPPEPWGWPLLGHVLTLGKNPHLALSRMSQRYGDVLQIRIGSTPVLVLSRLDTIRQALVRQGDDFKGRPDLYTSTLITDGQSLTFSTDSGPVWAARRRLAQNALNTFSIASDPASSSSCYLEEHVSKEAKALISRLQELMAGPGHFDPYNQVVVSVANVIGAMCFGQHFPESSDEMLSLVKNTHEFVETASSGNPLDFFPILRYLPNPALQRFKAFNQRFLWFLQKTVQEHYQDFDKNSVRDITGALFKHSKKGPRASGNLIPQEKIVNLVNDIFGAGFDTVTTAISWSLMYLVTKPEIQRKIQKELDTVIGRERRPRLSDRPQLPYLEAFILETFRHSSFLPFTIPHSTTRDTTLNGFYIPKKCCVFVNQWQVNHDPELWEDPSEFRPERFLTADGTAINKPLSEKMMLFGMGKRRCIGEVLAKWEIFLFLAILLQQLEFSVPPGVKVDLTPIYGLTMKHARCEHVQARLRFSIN
Reported AC50 values for the following compounds.
PROPERTY: AC50

>>> reported_result("COc1ccc(-c2nc3cnc(Nc4ccccc4)nc3n(Cc3cccs3)c2=O)cc1")
"25.1 µM (inconclusive)"
>>> reported_result("COc1cc(C(=O)Oc2ccccc2/C=N/NC(=O)c2ccc(C)cc2)cc(OC)c1OC")
"2.24 µM (inconclusive)"
>>> reported_result("C[C@@H](CCC(=O)O)C(=O)O")
"6.31 µM (inconclusive)"
>>> reported_result("CC(C)CN(Cc1c(O)ccc2c3c(c(=O)oc12)CCC3)CC(C)C")
"15.8 µM (inconclusive)"
>>> reported_result("Cn1c(-c2ccc(CN3CCCCC3)o2)nc2ccccc21")
"12.6 µM (inconclusive)"
>>> reported_result("COc1ccc(-c2nc3cnc(N4CCOCC4)nc3n(CCC#N)c2=O)cc1")
"3.16 µM (inconclusive)"

###

Target: Calpain-2 catalytic subunit (Sus scrofa)
Sequence (P43367 whole entry): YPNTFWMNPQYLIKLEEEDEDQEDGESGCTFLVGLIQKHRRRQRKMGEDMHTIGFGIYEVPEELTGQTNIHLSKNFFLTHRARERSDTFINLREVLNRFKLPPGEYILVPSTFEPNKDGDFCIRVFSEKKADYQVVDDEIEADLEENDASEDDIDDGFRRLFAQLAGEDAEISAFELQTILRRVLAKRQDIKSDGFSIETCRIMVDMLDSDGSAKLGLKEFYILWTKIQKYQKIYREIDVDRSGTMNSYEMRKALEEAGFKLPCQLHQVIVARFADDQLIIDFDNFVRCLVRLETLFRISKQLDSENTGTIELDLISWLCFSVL
Assay: m-calpain protease blockers, concentration series – biochemical, fluorogenic peptide substrate, dose response (AID 1420)
Type: functional
Activity calls are given as the source filed them.
Let's look at some compounds and their measured IC50.
PROPERTY: IC50

>>> reported_result("CS(=O)(=O)c1ccc(C(=O)N2CCc3ccccc3C2)cc1")
"0.514 µM (not active)"
>>> reported_result("Cc1nc(-c2ccc(S(=O)(=O)Nc3ccc(Br)cc3Cl)s2)cs1")
"12.2 µM (active)"
>>> reported_result("Cc1cc(C)cc(Oc2nc(-c3ccccc3)cc(C)c2S(C)(=O)=O)c1")
"6.25 µM (not active)"
>>> reported_result("S=c1[nH]nc(CSc2nc3ccccc3s2)n1C1CCCCC1")
"14.3 µM (not active)"
>>> reported_result("CC(=O)C(=NNc1ccc(-n2ccc(C(F)(F)F)n2)cc1)C(C)=O")
"2.57 µM (active)"
>>> reported_result("O=C(O)c1cccc(NC(=S)NC(=O)c2ccc(-c3ccccc3)cc2)c1")
"> 50 µM (not active)"

###

# maps each entry to its IC50
Target: Nonstructural protein 1 (Influenza A virus, UniProt Q194T2)
Sequence (Q194T2 whole entry): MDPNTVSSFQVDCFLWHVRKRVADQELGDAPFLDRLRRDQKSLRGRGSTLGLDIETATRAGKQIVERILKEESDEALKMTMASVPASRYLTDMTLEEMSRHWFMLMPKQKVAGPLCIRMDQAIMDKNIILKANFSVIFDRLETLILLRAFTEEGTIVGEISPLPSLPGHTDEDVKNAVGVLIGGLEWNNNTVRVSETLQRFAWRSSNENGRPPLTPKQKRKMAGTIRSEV
Type: functional, Influenza A virus (A/California/07/2009(H1N1))
Calls of active or inactive are those of the source.
PROPERTY: IC50

>>> reported_result("COc1ccc(Cc2nnc(N/N=C/c3ccccc3O)nc2O)cc1OC")
"1.42 µM (active)"
>>> reported_result("Cc1ncc(CO)c(/C=N/Nc2ccc(C(F)(F)F)cn2)c1O")
"7.34 µM (active)"
>>> reported_result("Oc1ccccc1C=Nc1ccc(F)c2c(O)[nH]nc12")
"41.6 µM (active)"
>>> reported_result("Oc1[nH]c2ccc(Br)cc2c1N=NC(=S)N1CCOCC1")
"19.9 µM (active)"
>>> reported_result("CCc1ccccc1NC(=O)CSc1nc2nnc(C)c-2c(N)n1-c1cccc(OC)c1")
"> 100 µM (active)"
>>> reported_result("CCCCCc1cc(=O)oc2c(C(CCN3CCCC3)c3ccc(N(C)C)cc3)c(OC)cc(OC)c12 (stereo not given)")
"6.41 µM (active)"
>>> reported_result("Cc1ccc(-n2nc(C)c(/C=N/NC(=O)c3ccc(O)cc3O)c2O)cc1")
"4.44 µM (active)"
>>> reported_result("CC1=C/C(=N\\Nc2ccccc2[N+](=O)[O-])CC(C)(C)C1")
"14.9 µM (active)"
>>> reported_result("Cc1nn(-c2ccccc2)c(O)c1/C=N/NC(=O)c1ccc(O)cc1O")
"3.09 µM (active)"
>>> reported_result("CCCN1C(=O)/C(=C2/C=Cc3ccccc3N2CC)SC1=S")
"5.77 µM (active)"
